Entries and their measured EC50 follow.
Target: human GLP1-R (Homo sapiens, UniProt P43220)
Sequence (P43220 24-463): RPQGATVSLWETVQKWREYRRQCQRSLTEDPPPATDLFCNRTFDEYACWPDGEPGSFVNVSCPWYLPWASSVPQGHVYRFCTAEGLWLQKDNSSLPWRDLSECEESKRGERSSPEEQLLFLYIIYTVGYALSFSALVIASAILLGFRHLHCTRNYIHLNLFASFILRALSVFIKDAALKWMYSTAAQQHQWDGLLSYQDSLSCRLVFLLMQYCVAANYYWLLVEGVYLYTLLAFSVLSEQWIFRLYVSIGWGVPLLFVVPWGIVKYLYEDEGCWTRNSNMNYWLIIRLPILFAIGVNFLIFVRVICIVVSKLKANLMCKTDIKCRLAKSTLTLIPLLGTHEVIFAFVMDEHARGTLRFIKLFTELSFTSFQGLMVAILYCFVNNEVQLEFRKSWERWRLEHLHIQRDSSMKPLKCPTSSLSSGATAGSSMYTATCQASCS
Experiment: GLP1-R internalization assay in HEK293 cells
Format: cell-based
Conditions: HEK293 cells expressing SNAP-GLP-1R; read-out: GLP1R Internalization EC50
Starred links: 1 amine or outer side, 2 acyl side, 3 side chain; linkers in the order of their positions; H or OH if unused. Non-standard residues stand in square brackets, D forms with d. Groups on a side chain read outwards from the residue. *: point of attachment. C18 diacid = O=C(O)CCCCCCCCCCCCCCCCC(=O)*; γGlu = O=C(O)[C@H](CCC(=O)[*:2])N[*:1]; αMeL = CC(C)C[C@](C)(N)C(=O)O; Orn = NCCC[C@H](N)C(=O)O; AEEA = NCCOCCOCC(=O)O; Aib = CC(C)(N)C(=O)O
Field: numeric (µM). Do not append units.

>  <substance>
H-Y[Aib]QGTFTSDFS[Orn][αMeL]LDKK([AEEA-γGlu-C18 diacid])AQ[Aib]AFIEYLLE[dA]GPSS[Aib]APPPSGT-NH2 [Example 214]

>  <unit-label>
µM

>  <EC50>
0.0501

$$$$

Test system human GLP1-R (Homo sapiens, UniProt P43220); read-out EC50; what value for H-Y[Aib]QGTFTSDFS[Orn][αMeL]LDKK([AEEA-γGlu-C18 diacid])AQ[Aib]AFIEYLLE[Aib]GPSS[Aib]APPPSGS-NH2 [Example 238] ? 0.0321

Test system human GLP1-R (Homo sapiens, UniProt P43220); read-out EC50; what value for H-Y[Aib]QGTFTSDFS[Orn][αMeL]LDKK([AEEA-AEEA-γGlu-C18 diacid])AQ[Aib]AFIEYLLEGGPSSGAPPPGES-NH2 [Example 118] ? 0.0823

Test system human GLP1-R (Homo sapiens, UniProt P43220); read-out EC50; what value for H-Y[Aib]QGTFTSDYSR[αMeL]LDKK([AEEA-γGlu-C18 diacid])AQ[Aib]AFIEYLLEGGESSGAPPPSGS-NH2 [Example 361] ? 0.0504

Test system human GLP1-R (Homo sapiens, UniProt P43220); read-out EC50; what value for H-Y[Aib]QGTFTSDFS[Orn][αMeL]LDKK([AEEA-γGlu-C18 diacid])AQ[Aib]AFIEYLLE[Aib]GHSSGAPPPSGS-NH2 [Example 241] ? 0.0644

Test system human GLP1-R (Homo sapiens, UniProt P43220); read-out EC50; what value for H-Y[Aib]QGTFTSDFS[Orn][αMeL]LDKK([AEEA-γGlu-C18 diacid])AQ[Aib]AFIEYLLEGGHSSGEPPPGGS-NH2 [Example 164] ? 0.0459

The reported numbers originate from patent US20240270821A1.
